- System: S. pneumoniae D39V
- Method description: Bliss interaction score (quartile over a dose matrix) (fitness difference); higher = more antagonism (negative = synergy);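 further: first quartile when negative (synergy) and third quartile when positive (antagonism)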
List of Bliss interaction score values.
Number only, please.

Some compounds with recorded Bliss interaction score:
- CC[C@H]1OC(=O)[C@H](C)[C@@H](O[C@H]2C[C@@](C)(OC)[C@@H](O)[C@H](C)O2)[C@H](C)[C@@H](O[C@@H]2O[C@H](C)C[C@H](N(C)C)[C@H]2O)[C@](C)(O)C[C@@H](C)C(=O)[C@H](C)[C@@H](O)[C@]1(C)O [Erythromycin] + COc1cc(Cc2cnc(N)nc2N)cc(OC)c1OC [Trimethoprim]: -0.0464
- CO[C@H]1/C=C/O[C@@]2(C)Oc3c(C)c(O)c4c(O)c(c(/C=N/N5CCN(C)CC5)c(O)c4c3C2=O)NC(=O)/C(C)=C\C=C\[C@H](C)[C@H](O)[C@@H](C)[C@@H](O)[C@@H](C)[C@H](OC(C)=O)[C@@H]1C [Rifampicin] + CC1=C\[C@@H](O)CC(=O)Cc2nc(co2)C(=O)N2CCC=C2C(=O)O[C@H](C(C)C)[C@H](C)/C=C/C(=O)NC\C=C\1 [Virginiamycin M1]: 0.111
- CC[C@H]1OC(=O)[C@H](C)[C@@H](O[C@H]2C[C@@](C)(OC)[C@@H](O)[C@H](C)O2)[C@H](C)[C@@H](O[C@@H]2O[C@H](C)C[C@H](N(C)C)[C@H]2O)[C@](C)(O)C[C@@H](C)C(=O)[C@H](C)[C@@H](O)[C@]1(C)O [Erythromycin] + Oc1cc(Cl)ccc1Oc1ccc(Cl)cc1Cl [Triclosan]: -0.0874
- CN[C@H](CC(C)C)C(=O)N[C@H]1C(=O)N[C@@H](CC(N)=O)C(=O)N[C@H]2C(=O)N[C@H]3C(=O)N[C@H](C(=O)N[C@H](C(=O)O)c4cc(O)cc(O)c4-c4cc3ccc4O)[C@H](O[C@H]3C[C@](C)(N)[C@@H](O)[C@H](C)O3)c3ccc(c(Cl)c3)Oc3cc2cc(c3O[C@@H]2O[C@H](CO)[C@@H](O)[C@H](O)[C@H]2O[C@H]2C[C@](C)(NCc3ccc(-c4ccc(Cl)cc4)cc3)[C@@H](O)[C@H](C)O2)Oc2ccc(cc2Cl)[C@H]1O [Oritavancin] + CN1C2=CC=CC=C2N=C3C1=CC=CC3=O [Pyocyanin]: -0.0208
- CC[C@H]1OC(=O)[C@H](C)[C@@H](O[C@H]2C[C@@](C)(OC)[C@@H](O)[C@H](C)O2)[C@H](C)[C@@H](O[C@@H]2O[C@H](C)C[C@H](N(C)C)[C@H]2O)[C@](C)(O)C[C@@H](C)C(=O)[C@H](C)[C@@H](O)[C@]1(C)O [Erythromycin] + Cc1ncc([N+](=O)[O-])n1CCO [Metronidazole]: 0.0719
- CO[C@H]1/C=C/O[C@@]2(C)Oc3c(C)c(O)c4c(O)c(c(/C=N/N5CCN(C)CC5)c(O)c4c3C2=O)NC(=O)/C(C)=C\C=C\[C@H](C)[C@H](O)[C@@H](C)[C@@H](O)[C@@H](C)[C@H](OC(C)=O)[C@@H]1C [Rifampicin] + CN(N=O)C(=O)N[C@@H](C=O)[C@@H](O)[C@H](O)[C@H](O)CO [Streptozotocin]: -0.0476

Task item: GET /values?readout=Bliss interaction score&item= CO[C@H]1/C=C/O[C@@]2(C)Oc3c(C)c(O)c4c(O)c(c(/C=N/N5CCN(C)CC5)c(O)c4c3C2=O)NC(=O)/C(C)=C\C=C\[C@H](C)[C@H](O)[C@@H](C)[C@@H](O)[C@@H](C)[C@H](OC(C)=O)[C@@H]1C [Rifampicin] + CC[C@H]1OC(=O)[C@H](C)C(=O)[C@H](C)[C@@H](O[C@@H]2O[C@H](C)C[C@H](N(C)C)[C@H]2O)[C@](C)(OC)C[C@@H](C)C(=O)[C@H](C)[C@H]2N(CCCCn3cnc(-c4cccnc4)c3)C(=O)O[C@]12C [Telithromycin]
Reply: -0.157

Task item: GET /values?readout=Bliss interaction score&item= CN[C@H](CC(C)C)C(=O)N[C@H]1C(=O)N[C@@H](CC(N)=O)C(=O)N[C@H]2C(=O)N[C@H]3C(=O)N[C@H](C(=O)N[C@H](C(=O)O)c4cc(O)cc(O)c4-c4cc3ccc4O)[C@H](O[C@H]3C[C@](C)(N)[C@@H](O)[C@H](C)O3)c3ccc(c(Cl)c3)Oc3cc2cc(c3O[C@@H]2O[C@H](CO)[C@@H](O)[C@H](O)[C@H]2O[C@H]2C[C@](C)(NCc3ccc(-c4ccc(Cl)cc4)cc3)[C@@H](O)[C@H](C)O2)Oc2ccc(cc2Cl)[C@H]1O [Oritavancin] + CCN(CC)CCOC(=O)c1ccc(N)cc1 [Procaine]
Reply: -0.0615

Task item: GET /values?readout=Bliss interaction score&item= CC[C@H]1OC(=O)[C@H](C)[C@@H](O[C@H]2C[C@@](C)(OC)[C@@H](O)[C@H](C)O2)[C@H](C)[C@@H](O[C@@H]2O[C@H](C)C[C@H](N(C)C)[C@H]2O)[C@](C)(O)C[C@@H](C)C(=O)[C@H](C)[C@@H](O)[C@]1(C)O [Erythromycin] + C/C(=C\C(=O)OCCCCCCCCC(=O)O)C[C@@H]1OC[C@H](C[C@@H]2O[C@H]2[C@@H](C)[C@H](C)O)[C@@H](O)[C@H]1O [Pseudomonic acid]
Reply: 0.0664

Task item: GET /values?readout=Bliss interaction score&item= CO[C@@]12[C@H](COC(N)=O)C3=C(C(=O)C(C)=C(N)C3=O)N1C[C@@H]1N[C@@H]12 [MitomycinC] + CN(N=O)C(=O)N[C@@H](C=O)[C@@H](O)[C@H](O)[C@H](O)CO [Streptozotocin]
Reply: -0.0613

----------
- System: S. aureus Newman
- Method description: Bliss interaction score (quartile over a dose matrix) (fitness difference); higher = more antagonism (negative = synergy)
Measure: Bliss interaction score
Number only, please.

Some molecules with recorded Bliss interaction score:
- CN[C@@H]1[C@H](O)[C@H](NC)[C@H]2O[C@@]3(O)C(=O)C[C@@H](C)O[C@H]3O[C@@H]2[C@H]1O [Spectinomycin] + CN(C)c1cc(NC(=O)CNC(C)(C)C)c(O)c2c1C[C@H]1C[C@H]3[C@H](N(C)C)C(O)=C(C(N)=O)C(=O)[C@@]3(O)C(O)=C1C2=O [Tigecycline]: 0.0622
- CO[C@@H]1[C@@H](OC(N)=O)[C@@H](O)[C@H](Oc2ccc3c(O)c(NC(=O)c4ccc(O)c(CC=C(C)C)c4)c(=O)oc3c2C)OC1(C)C [Novobiocin] + Cc1onc(-c2ccccc2)c1C(=O)N[C@@H]1C(=O)N2[C@@H]1SC(C)(C)[C@@H]2C(=O)O [Oxacillin]: -0.0672
- CC(=O)NC[C@H]1CN(c2ccc(N3CCOCC3)c(F)c2)C(=O)O1 [Linezolid] + CN(C)c1cc(NC(=O)CNC(C)(C)C)c(O)c2c1C[C@H]1C[C@H]3[C@H](N(C)C)C(O)=C(C(N)=O)C(=O)[C@@]3(O)C(O)=C1C2=O [Tigecycline]: -0.0561

Task item: # returns recorded Bliss interaction score (system: S. aureus Newman) for CO[C@@]12[C@H](COC(N)=O)C3=C(C(=O)C(C)=C(N)C3=O)N1C[C@@H]1N[C@@H]12 [MitomycinC] + CN[C@H](CC(C)C)C(=O)N[C@H]1C(=O)N[C@@H](CC(N)=O)C(=O)N[C@H]2C(=O)N[C@H]3C(=O)N[C@H](C(=O)N[C@H](C(=O)O)c4cc(O)cc(O)c4-c4cc3ccc4O)[C@H](O)c3ccc(c(Cl)c3)Oc3cc2cc(c3O[C@@H]2O[C@H](CO)[C@@H](O)[C@H](O)[C@H]2O[C@H]2C[C@](C)(N)[C@H](O)[C@H](C)O2)Oc2ccc(cc2Cl)[C@H]1O [Vancomycin]
Reply: -0.0526

Task item: # returns recorded Bliss interaction score (system: S. aureus Newman) for CC[C@H]1OC(=O)[C@H](C)[C@@H](O[C@H]2C[C@@](C)(OC)[C@@H](O)[C@H](C)O2)[C@H](C)[C@@H](O[C@@H]2O[C@H](C)C[C@H](N(C)C)[C@H]2O)[C@](C)(O)C[C@@H](C)C(=O)[C@H](C)[C@@H](O)[C@]1(C)O [Erythromycin] + CC(=O)NC[C@H]1CN(c2ccc(N3CCOCC3)c(F)c2)C(=O)O1 [Linezolid]
Reply: -0.0521

Task item: # returns recorded Bliss interaction score (system: S. aureus Newman) for CO[C@@]12[C@H](COC(N)=O)C3=C(C(=O)C(C)=C(N)C3=O)N1C[C@@H]1N[C@@H]12 [MitomycinC] + CN[C@@H]1[C@H](O)[C@H](NC)[C@H]2O[C@@]3(O)C(=O)C[C@@H](C)O[C@H]3O[C@@H]2[C@H]1O [Spectinomycin]
Reply: -0.0974
